Assay: protein stability index of a GFP-peptide fusion (yeast GPS) (PSI 1-4); higher = more stable; sorted into four equal gates, so the index is relative within each strain
Conditions: ubr1∆
Short version: protein stability index at least 3 is rule met, less is rule not met.

Answered cases to consult:
{"columns": ["SEQ TEXT", "GROUP"],
 "data": [
  ["VPNSSDQAELPNNASSH [SNF2]", "rule not met"],
  ["SYYSREQDALFITRLAQ [RPN1]", "rule not met"],
  ["YSIDEFFLQRKLRSELG [BRR2]", "rule not met"]
]}

hey, is protein stability index for this one >= 3? PLPSHALTVQEVLNRVA [YDL116W/NUP84]
rule not met

Hi team, for SLHNTEKIMENKYPELL [AAR2] , is the recorded protein stability index at or above 3?
rule not met

Decide: is the reported value of protein stability index for SKSEFAHRIMLTNILRM [FAS2] equal to or greater than 3?
rule not met

* * *

Experiment: protein stability index of a GFP-peptide fusion (yeast GPS) (PSI 1-4); higher = more stable; sorted into four equal gates, so the index is relative within each strain
Conditions: pdr5∆
Please mark label 1 if the recorded protein stability index is equal to or greater than 3, and label 0 if it falls below.

{"columns": ["SEQ TEXT", "GROUP"],
 "data": [
  ["AILKLLENMPHPWEQAK [PRP8]", "label 0"]
]}

Textbook exercise: given the entry ILLYGPPGTGKTLCARA [RPT1] , state whether its protein stability index is greater than or equal to 3.
label 0

Threshold query (protein stability index >= 3) on NNESNKNNNGDEKNKNN [MED2]
label 1

Entry MDDEEWRSKRIEQLFPV [RPC53] : is its protein stability index no less than 3?
label 0

Quick check, protein stability index >= 3? FDVMIDEESLVKYMPEQ [RPO21]
label 0

Does protein stability index meet or surpass 3 for FNQRDGEHEKSNILLNS [MED1] ?
label 0

Does protein stability index meet or surpass 3 for ILSLIEEAAGTKMFEDR [SMC2] ?
label 1

Given DVYNRELDEHTTQIDLF [BRR2] , state whether its protein stability index is at least 3.
label 0

* * *

Test: protein stability index of a GFP-peptide fusion (yeast GPS) (PSI 1-4); higher = more stable; sorted into four equal gates, so the index is relative within each strain
Details: pdr5∆
Tick criterion met if protein stability index is 2 or greater. Tick criterion not met if protein stability index is less than 2.

{"columns": ["SEQ TEXT", "GROUP"],
 "data": [
  ["NELLEMVGLASGNDSMA [BRR2]", "criterion met"],
  ["FKPSQEPEFHALSQSSL [RRI1]", "criterion met"],
  ["QVVTTVASQSPHATATE [SNF6]", "criterion met"]
]}

hey, is protein stability index for this one >= 2? KEYISRLWHTLKYYQDL [SNF5]
criterion not met

Confirm if protein stability index reported for the sequence IMYQQMLKYRRLFIGDQ [SNF2] is 2 or above.
criterion not met

Tell me whether protein stability index is at least 2 here: HIIQAKADAQREKALNE [RPL19A]
criterion met

API: above_or_equal(metric=protein stability index, cutoff=2) for item AIGTKRYDSNSGGEREI [RPT2]
criterion met

hey, is protein stability index for this one >= 2? LDENKWYKFNDDKVSVV [UBP6]
criterion met

Hi, just wondering whether LANFVAKGFYHTPMVNF [SRB8] shows protein stability index of 2 or higher.
criterion met
